Form field: IC50 at 72 h (one value per entry).
experimentSummary: Cytotoxicity against human L02 cells measured after 72 hrs by MTT assay
Assay type: toxicity, cell-based

compound: CC1(C)OCC(Cn2cc(Cn3c4c(c5ccccc53)C(=O)c3c[n+]([O-])c5ccccc5c3C4=O)nn2)O1 (centres undefined)
IC50 at 72 h [µM]: 0.12

compound: O=C1c2c[n+]([O-])c3ccccc3c2C(=O)c2c1c1ccccc1n2CCCN1CCC(O)CC1
IC50 at 72 h [µM]: 0.12

compound: CC(=O)OC[C@H]1O[C@H](n2cc(Cn3c4c(c5ccccc53)C(=O)c3c[n+]([O-])c5ccccc5c3C4=O)nn2)[C@H](OC(C)=O)[C@@H]1OC(C)=O
IC50 at 72 h [µM]: 0.09

compound: CC(=O)OC[C@@H]1OC(C)(C)O[C@H]1Cn1cc(Cn2c3c(c4ccccc42)C(=O)c2c[n+]([O-])c4ccccc4c2C3=O)nn1
IC50 at 72 h [µM]: 1.06

====

Form field: solubility at 24 h (one value per entry).
experimentSummary: Aqueous solubility of the compound in saline equilibrating for 24 hrs by HPLC analysis
Type: physicochemical

compound: O=C1c2c[n+]([O-])c3ccccc3c2C(=O)c2[nH]c3ccccc3c21 [CALOTHRIXIN A]
solubility at 24 h: < 5 µg/mL
//
compound: O=C1c2c[n+]([O-])c3ccccc3c2C(=O)c2c1c1ccccc1n2Cc1cn([C@@H]2C[C@H](O)[C@@H](CO)O2)nn1
solubility at 24 h: > 5000 µg/mL
//
compound: O=C1c2c[n+]([O-])c3ccccc3c2C(=O)c2c1c1ccccc1n2Cc1cn([C@H]2C[C@H](O)[C@@H](CO)O2)nn1
solubility at 24 h: > 5000 µg/mL

====

experimentSummary: Microsomal stability in mouse liver microsomes assessed as clearance measured at 2 ug/ml upto 60 mins in presence of NADPH generating system and UGT incubation system by phase II metabolic stability kit method
Format: ADME, Microsome
runParameters: dose 2 µg/ml, read-out: CLH
Form field: microsomal CLint at 2 ug/ml (one value per entry).
measuredQuantity: microsomal CLint at 2 ug/ml (µL/min/mg)

molecule: O=C1c2c[n+]([O-])c3ccccc3c2C(=O)c2c1c1ccccc1n2Cc1cn([C@@H]2C[C@H](O)[C@@H](CO)O2)nn1
assayValue: 35
//
molecule: COc1cc([C@@H]2c3cc4c(cc3[C@@H](O[C@@H]3O[C@@H]5CO[C@@H](C)O[C@H]5[C@H](O)[C@H]3O)[C@H]3COC(=O)[C@H]23)OCO4)cc(OC)c1O [ETOPOSIDE]
assayValue: 66

====

experimentSummary: Cytotoxicity against human L02 cells measured after 72 hrs by MTT assay
Assay type: toxicity, cell-based
Form field: IC50 at 72 h (one value per entry).

substanceSmiles: CCCN1CCN(CCCCn2c3c(c4ccccc42)C(=O)c2c[n+]([O-])c4ccccc4c2C3=O)CC1
IC50 at 72 h [nM]: 6830
//
substanceSmiles: O=C1c2c[n+]([O-])c3ccccc3c2C(=O)c2c1c1ccccc1n2CCN1CCOCC1
IC50 at 72 h [nM]: 1730
//
substanceSmiles: O=C1c2c[n+]([O-])c3ccccc3c2C(=O)c2c1c1ccccc1n2CCCN1CCOCC1
IC50 at 72 h [nM]: 550
//
substanceSmiles: CN1CCN(CCCCCn2c3c(c4ccccc42)C(=O)c2c[n+]([O-])c4ccccc4c2C3=O)CC1
IC50 at 72 h [nM]: 1640
//
substanceSmiles: O=C1c2c[n+]([O-])c3ccccc3c2C(=O)c2c1c1ccccc1n2Cc1cn(C[C@@H](O)CO)nn1
IC50 at 72 h [nM]: 490
//
substanceSmiles: O=C1c2c[n+]([O-])c3ccccc3c2C(=O)c2[nH]c3ccccc3c21
IC50 at 72 h [nM]: 400
//
substanceSmiles: O=C1c2c[n+]([O-])c3ccccc3c2C(=O)c2c1c1ccccc1n2CCCCN1CCNCC1
IC50 at 72 h [nM]: 1380
//
substanceSmiles: CN1CCN(CCCCCCn2c3c(c4ccccc42)C(=O)c2c[n+]([O-])c4ccccc4c2C3=O)CC1
IC50 at 72 h [nM]: 3800
//
substanceSmiles: O=C1c2c[n+]([O-])c3ccccc3c2C(=O)c2c1c1ccccc1n2Cc1cn([C@@H]2C[C@H](O)[C@@H](CO)O2)nn1
IC50 at 72 h [nM]: 630
